Reference for the values: ChEMBL document CHEMBL5550192

- Assay target: Protein cereblon/Maternal embryonic leucine zipper kinase (Homo sapiens, UniProt Q14680+Q96SW2)
- Experiment: PROTAC activity at CRBN/MELK in human Ramos cells assessed as inhibition of mTOR phosphorylation measured after 24 hrs Western blot analysis
- Sequence (Q14680 whole entry): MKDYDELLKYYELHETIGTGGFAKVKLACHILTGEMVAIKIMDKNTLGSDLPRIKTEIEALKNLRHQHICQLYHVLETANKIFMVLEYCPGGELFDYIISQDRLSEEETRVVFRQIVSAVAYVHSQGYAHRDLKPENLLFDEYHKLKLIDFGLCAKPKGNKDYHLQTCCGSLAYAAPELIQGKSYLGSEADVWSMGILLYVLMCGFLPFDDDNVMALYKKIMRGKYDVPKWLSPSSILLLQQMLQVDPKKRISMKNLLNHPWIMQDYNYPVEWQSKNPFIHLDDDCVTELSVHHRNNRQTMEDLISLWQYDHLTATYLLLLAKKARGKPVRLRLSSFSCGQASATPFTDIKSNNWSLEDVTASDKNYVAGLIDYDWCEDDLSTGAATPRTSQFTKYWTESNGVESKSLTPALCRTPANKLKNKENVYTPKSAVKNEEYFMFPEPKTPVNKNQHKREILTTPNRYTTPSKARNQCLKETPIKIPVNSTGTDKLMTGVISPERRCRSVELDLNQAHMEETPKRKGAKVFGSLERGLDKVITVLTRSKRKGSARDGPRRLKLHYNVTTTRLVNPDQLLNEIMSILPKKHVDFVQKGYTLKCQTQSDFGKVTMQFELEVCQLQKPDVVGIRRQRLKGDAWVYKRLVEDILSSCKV
- Sequence (Q96SW2 whole entry): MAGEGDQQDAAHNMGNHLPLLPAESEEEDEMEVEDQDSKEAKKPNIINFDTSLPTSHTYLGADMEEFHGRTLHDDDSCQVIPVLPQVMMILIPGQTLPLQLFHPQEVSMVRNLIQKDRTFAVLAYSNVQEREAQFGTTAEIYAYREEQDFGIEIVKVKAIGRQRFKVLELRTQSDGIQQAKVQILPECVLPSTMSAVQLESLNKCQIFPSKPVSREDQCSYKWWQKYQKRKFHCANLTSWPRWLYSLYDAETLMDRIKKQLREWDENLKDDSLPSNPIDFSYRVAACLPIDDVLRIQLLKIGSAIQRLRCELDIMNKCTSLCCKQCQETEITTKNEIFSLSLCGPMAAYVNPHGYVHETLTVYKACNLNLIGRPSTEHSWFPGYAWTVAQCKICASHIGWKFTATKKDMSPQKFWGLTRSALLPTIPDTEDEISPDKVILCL
Measured parameter: EC50 (nM)
Express the result in nM but write the number alone.

The compound identified as CC(C)COc1cnccc1-c1cnn(-c2ccc(N3CCN(Cc4cn(CCOCCOCCNc5ccc6c(c5)C(=O)N(C5CCC(=O)NC5=O)C6=O)nn4)CC3)cc2)c1 (stereo unspecified) registered its EC50 at 2300

----------
- Assay target: Protein cereblon/Maternal embryonic leucine zipper kinase (Homo sapiens, UniProt Q14680+Q96SW2)
- Experiment: PROTAC activity at CRBN/MELK in human Ramos cells assessed as residual activity at 5 uM measured after 48 hrs by immunoblot analysis relative to control
- Type: cell-based
- Sequence (Q14680 whole entry, looked up): as the sequence (Q14680 whole entry) above
- Sequence (Q96SW2 whole entry, looked up): as the sequence (Q96SW2 whole entry) above
Please respond with reported Activity for every item in the list.
Give just the numeric value; % need not be written.

Value of measured Activity for the entry CC(C)COc1cnccc1-c1cnn(-c2ccc(N3CCN(Cc4cn(CCOCCNc5ccc6c(c5)C(=O)N(C5CCC(=O)NC5=O)C6=O)nn4)CC3)cc2)c1 (stereo not given) : 49.3

The compound listed as CC(C)COc1cnccc1-c1cnn(-c2ccc(N3CCN(Cc4cn(CCCCCCCNc5ccc6c(c5)C(=O)N(C5CCC(=O)NC5=O)C6=O)nn4)CC3)cc2)c1 (stereo not given) shows Activity equal to 37.7

The compound CC(C)COc1cnccc1-c1cnn(-c2ccc(N3CCN(Cc4cn(CCOCCOCCNc5ccc6c(c5)C(=O)N(C5CCC(=O)NC5=O)C6=O)nn4)CC3)cc2)c1 (stereo not given) showed Activity equal to 14.3

For reference, reported Activity for CC(C)COc1cnccc1-c1cnn(-c2ccc(N3CCN(Cc4cn(CCOCCOCCOCCOCCNc5ccc6c(c5)C(=O)N(C5CCC(=O)NC5=O)C6=O)nn4)CC3)cc2)c1 (stereo not given) stands at 42.7

# Activity of CC(C)COc1cnccc1-c1cnn(-c2ccc(N3CCN(Cc4cn(CCOCCOCCOCCNc5ccc6c(c5)C(=O)N(C5CCC(=O)NC5=O)C6=O)nn4)CC3)cc2)c1 (stereo not given) = 49.6
